test system: Human promyeloid leukemia HL-60 cells; test: Cytotoxicity Assays Method B (MTT proliferation assay), HL-60; format: cell-based; conditions: Homo sapiens, 96 h; HL-60, MTT, treatment for 4 days; read-out: IC50 (concentration at which 50% of the cells are inhibited from growing)
Assign IC50 to each entry below.
Answers are plain numbers, in nM.

>>> reported_value("CN(C)CCNC(=O)c1cc2c(s1)C(=O)c1ccsc1C2=O")
50

Give measured IC50 for every item shown.
1. CC(OC(=O)CCCC(=O)O)c1cc2c(s1)C(=O)c1ccsc1C2=O (centres unmarked)
2. O=C(O)CCCC(=O)OCc1cc2c(s1)C(=O)c1sccc1C2=O
3. C[C@H](NC(=O)c1cc2c(s1)C(=O)c1ccsc1C2=O)C(=O)O

1. 280
2. 700
3. 750

Query: IC50; subject: CC(OCC(=O)O)c1cc2c(s1)C(=O)c1ccsc1C2=O (centres unmarked) 2580
